FYI, the data here is from PubChem BioAssay AID652283.

As shown below, each of these molecules has a reported max response value.
Test: qHTS Assay for Lipid Storage Modulators: COS7 Assay against Probe and Analogs
Settings: COS7 lipid droplet area, BODIPY imaging, 18 h; cells loaded with 400 µM oleic acid
Inconclusive results are not listed.
Provide only the numeric value, understood in %.

Exercise: Please indicate max response recorded for `CC(C)(NC(=O)Nc1ccccc1Cl)C(=O)N1CCC(C(=O)O)CC1`
Key: 21.7

Exercise: Please indicate max response recorded for `CCOc1ccc(CCNC(=O)c2cc3sccc3[nH]2)cc1OCC`
Key: -4.32

Exercise: Please indicate max response recorded for `CCOc1ccc(CCNC(=O)c2ccc3ccccc3n2)cc1OCC`
Key: -25

Exercise: Please indicate max response recorded for `CCOc1ccc(CCNC(=O)C2=C(C)OCCO2)cc1OCC`
Key: 10.4

Exercise: Please indicate max response recorded for `COc1cc(Nc2ncc(F)c(Nc3ccc4c(n3)NC(=O)C(C)(C)O4)n2)cc(OC)c1OC`
Key: -7.73

Exercise: Please indicate max response recorded for O=C(NC1CCCc2c1cnn2-c1ccc(F)cc1F)c1cnon1 (stereo not given)
Key: 13.2

Exercise: Please indicate max response recorded for `CCOC(=O)C1CCN(C(=O)C(C)(C)NC(=O)Nc2cccc(C(=O)OC)c2)CC1`
Key: 9.87

Exercise: Please indicate max response recorded for `O=C(c1cc2sccc2n1Cc1ccccc1)N(CCc1ccc(O)c(O)c1)Cc1ccccc1`
Key: 10.7

Exercise: Please indicate max response recorded for `Cc1cc2c(cc1C1(c3ccc(C(=O)O)cc3)CC1)C(C)(C)CCC2(C)C`
Key: -1.19

Exercise: Please indicate max response recorded for `O=C(N[C@H]1CCCc2c1cnn2-c1ccc(F)cc1F)c1ccccn1`
Key: 6.84
